test: HEK293 cellular growth inhibition assay (CellTiter-Glo); assay type: cell-based; conditions: human, HEK293 cells, 7 days of incubation
Measurement label: CC50 at 7 days

See these solved cases before continuing.
molecule=CS(=O)(=O)N1CCN(CCn2c(C#N)cc3cc(CN4CCC5(CC4)CN(c4ncnc6ccc(CC(F)(F)F)cc46)C5)ccc32)CC1 measurement="5 to 10 µM"
molecule=CCS(=O)(=O)N1CCN([C@H](C)Cn2c(C#N)cc3c(C)c(CN4CCC5(CC4)CN(c4ncnc6ccc(CC(F)(F)F)cc46)C5)ccc32)C[C@@H]1C measurement="2 to 5 µM"
molecule="Cc1c(CN2CCC3(CC2)CN(c2ncnc4ccc(CC(F)(F)F)cc24)C3)ccc2c1cc(C#N)n2CC1CNC(=O)CO1 (stereo not drawn)" measurement="2 to 5 µM"
molecule=Cc1c(CN2CCC3(CC2)CN(c2ncnc4ccc(CC(F)(F)F)cc24)C3)ccc2c1cc(C#N)n2Cc1ccc(=O)[nH]c1 measurement="≤ 2 µM"
molecule=CN(C)C/C=C/C(=O)N1CCN(CCn2c(C#N)cc3cc(CN4CCC5(CC4)CN(c4ncnc6ccc(CC(F)(F)F)cc46)C5)ccc32)CC1 measurement="≤ 2 µM"

Query :: Give me measured CC50 at 7 days, please, for this molecule: Cc1c(CN2CCC3(CC2)CN(c2ncnc4cnc(CC(F)(F)F)cc24)C3)ccc2c1cc(C#N)n2CC(C)N1CCN(S(C)(=O)=O)CC1 (stereo not drawn)
Result :: 5 to 10 µM

----------
Collected pEC50 values appear next to each entry.
biological target: recombinant MEN1 protein (Homo sapiens (Human), UniProt O00255); test: Primary fluorescence polarization assay of MEN1 activity inhibition (MEN1 / MLL4-43 peptide interaction); settings: MEN1 10 nM, fluorescein-labeled MLL4-43 peptide 0.5 nM
Sequence (O00255 whole entry): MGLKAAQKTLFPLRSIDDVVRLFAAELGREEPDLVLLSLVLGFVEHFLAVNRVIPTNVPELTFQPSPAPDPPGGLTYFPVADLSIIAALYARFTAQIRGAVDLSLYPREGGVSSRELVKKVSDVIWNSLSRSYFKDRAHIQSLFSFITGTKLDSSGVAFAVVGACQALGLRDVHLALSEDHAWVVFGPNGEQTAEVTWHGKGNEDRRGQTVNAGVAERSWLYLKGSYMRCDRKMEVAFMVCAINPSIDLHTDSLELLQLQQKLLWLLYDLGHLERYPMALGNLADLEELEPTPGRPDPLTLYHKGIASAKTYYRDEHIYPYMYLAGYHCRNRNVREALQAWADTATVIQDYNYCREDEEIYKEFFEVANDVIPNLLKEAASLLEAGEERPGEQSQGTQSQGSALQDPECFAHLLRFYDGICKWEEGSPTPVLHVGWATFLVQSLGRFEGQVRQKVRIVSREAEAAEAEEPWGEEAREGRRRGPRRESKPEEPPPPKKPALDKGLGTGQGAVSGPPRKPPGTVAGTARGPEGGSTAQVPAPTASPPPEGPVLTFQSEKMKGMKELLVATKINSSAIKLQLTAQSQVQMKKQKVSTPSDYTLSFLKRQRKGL
pEC50: −log10 of the molar value.

Use these answered entries as a reference point.
compound="CCS(=O)(=O)N1CCCN(C(C)Cn2c(C#N)cc3c(C)c(CN4CCC5(CC4)CN(c4ncnc6ccc(CC(F)(F)F)cc46)C5)ccc32)CC1 (stereo not shown)" measurement="≥ 7.12"
compound="Cc1c(CN2CCC3(CC2)CN(c2ncnc4ccc(CC(F)(F)F)cc24)C3)ccc2c1cc(C#N)n2CC1CN(CC(C)C)C(=O)CO1 (stereo not shown)" measurement="6.30 to 7.12"
compound=Cc1c(CN2CCC3(CC2)CN(c2ncnc4ccc(CC(F)(F)F)cc24)C3)ccc2c1cc(C#N)n2C[C@@H]1CCC(=O)N[C@H]1c1ccccc1 measurement="6.30 to 7.12"
compound="Cc1c(CN2CCC3(CC2)CN(c2ncnc4ccc(CC(F)(F)F)cc24)C3)ccc2c1cc(C#N)n2CC1CN(S(C)(=O)=O)CCO1 (stereo not shown)" measurement="6.30 to 7.12"

Query :: Tell me measured pEC50 for Cc1c(CN2CCC3(CC2)CN(c2cnnc4ccc(CC(F)(F)F)cc24)C3)ccc2c1cc(C#N)n2CC(C)N1CCN(S(C)(=O)=O)CC1 (stereo not shown) please.
Result :: ≥ 7.12

Query :: Assign pEC50 to the following record: Cc1c(CN2CCC3(CC2)CN(c2ncnc4ccc(CC(F)(F)F)cc24)C3)ccc2c1cc(C#N)n2CC1CNC(=O)N1 (stereo not shown)
Result :: 5.30 to 6.00

Query :: Quickly give me recorded pEC50 for Cc1c(CN2CCC3(CC2)CN(c2ncnc4ccc(CC(F)(F)F)cc24)C3)ccc2c1cc(C#N)n2CC1CN(C)C(=O)CN1 (stereo not shown)
Result :: 5.30 to 6.00
